# Test system: SKOV3
# Assay Comment: Primary qHTS to identify gynecologic anti-cancer compounds using libraries of approved drugs and bioactive compounds (AID 1345084); note: % is set by controls: 0 for no effect and ±100 for the full control effect; nearly all actives have a fitted effect of over 55% in size
# Details: Gynecologic cancer cell panel viability, ATPlite luminescence, 48 h; series mostly up to 57.5 µM
# Text: National Center for Advancing Translational Sciences [NCATS] Assay Overview: Chemotherapeutic drug responses vary from cancer to cancer and from patient to patient. […] ATPlite is a luminescence based assay reliant on the conversion of a luciferase substrate to light in the presence of ATP. As a cytotoxic compound will suppress growth and decrease the number of cells, the concentration of ATP will decrease, and less light signal will be detected in the well. […]
Results filed as inconclusive are left out. Calls of active or inactive are those of the source. Calls come from the whole dose curve; as a rule, active = well fitted cell-killing curve with a large enough effect; inconclusive = small, poorly fitted or top-dose-only effect, or effect the other way; inactive = flat fitted curve, though single readings scatter.
Property: outcome

Sample records with outcome:
| Molecule | Tgt | Reported Measurement |
| --- | --- | --- |
| COc1cc(NCc2ccc3nc(N)nc(N)c3c2C)cc(OC)c1OC | SKOV3 | inactive |
| O=C(N[C@H](CO)[C@H](O)c1ccc([N+](=O)[O-])cc1)C(Cl)Cl | SKOV3 | inactive |
| Cc1ncc([N+](=O)[O-])n1CCO | SKOV3 | inactive |
| Clc1ccccc1CN1CCc2sccc2C1 | SKOV3 | inactive |

Read the next record carefully.
Req: Sample `CCC(=O)O[C@]1(C(=O)SCF)[C@H](C)C[C@H]2[C@@H]3C[C@H](F)C4=CC(=O)C=C[C@]4(C)[C@@]3(F)[C@@H](O)C[C@@]21C` — what was its outcome?
Resp: inactive

---

# Assay Comment: Quantitative High-Throughput drug screen in 47 multiple myeloma cell lines against the NCATS MIPE library collection: OCIMY1_PLB cell viability assay (AID 1918979); note: nearly all actives have a fitted effect of over 35% in size;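 for viability: 100% = DMSO-only wells and 0% = cell-free media-only wells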
# Details: OCI-MY1 myeloma viability, CellTiter-Glo ATP, 48 h; series mostly up to 45.8 µM
Inconclusive results are not listed. Active and inactive are the calls of the source. Calls follow the shape of the dose curve; as a rule, active = well fitted cell-killing curve with a large enough effect; inconclusive = small, poorly fitted or top-dose-only effect, or effect the other way; inactive = no such curve, though single readings can be large or run the other way.
Classes to choose from: 1 = active, 0 = inactive

| Molecule | Discrete Label |
| --- | --- |
| COc1ccc(C(=O)CC(=O)c2ccc(C(C)(C)C)cc2)cc1 | 0 |
| CC(=O)Oc1ccccc1C(=O)Nc1ncc([N+](=O)[O-])s1 | 1 |

Req: What was the test verdict on `CCN(C)C(=O)Oc1cccc([C@H](C)N(C)C)c1` ?
Resp: 0

Req: # outcome recorded in this test, key = `CCOC(=O)[C@H](CCc1ccccc1)N[C@H]1CCc2ccccc2N(CC(=O)O)C1=O`
Resp: 1

Req: Give the logged outcome of this assay for the following compound: `COc1ccc(-c2ccc3cc(C(=O)O)ccc3c2)cc1C12CC3CC(CC(C3)C1)C2`
Resp: 0

Req: Answer briefly: the call reported for `NC(=O)c1cccc(N)c1` in this assay.
Resp: 0

Req: Which result was noted for this compound in the test: `Cc1ccc(S(=O)(=O)N[C@@H](Cc2ccccc2)C(=O)CCl)cc1`
Resp: 1

Req: Name the outcome recorded for `CCCCCCNC(=O)n1cc(F)c(=O)[nH]c1=O` in the assay.
Resp: 0

Req: Hi team, can someone confirm the assay call for `CO[C@@H]1[C@@H](OC(N)=O)[C@@H](O)[C@H](Oc2ccc3c(O)c(NC(=O)c4ccc(O)c(CC=C(C)C)c4)c(=O)oc3c2C)OC1(C)C` ?
Resp: 0

---

# Assay Comment: qHTS of pediatric cancer cell lines to identify multiple opportunities for drug repurposing: Primary screen for NB-EBc1 cells (AID 1347095)
# Details: NB-EBc1 neuroblastoma viability, CellTiter-Glo luminescence, 48 h; series mostly up to 46 µM
Inconclusive results are not listed. Calls of active or inactive are those of the source. Calls follow the shape of the dose curve; as a rule, active = well fitted cell-killing curve with a large enough effect; inconclusive = small, poorly fitted or top-dose-only effect; inactive = no such curve, though single readings can be large or run the other way.
Select the correct class. Options are TRUE = active, FALSE = inactive and nothing else.

# example entries with known answers
| Molecule | Discrete Label |
| --- | --- |
| Cc1cccc(N(C)C(=S)Oc2ccc3ccccc3c2)c1 | FALSE |
| CNC(=O)c1cc(Oc2ccc(NC(=O)Nc3ccc(Cl)c(C(F)(F)F)c3)cc2)ccn1 | TRUE |

Req: Record request — test call for CN(CCOc1ccc(CC2SC(=O)NC2=O)cc1)c1ccccn1 (stereo unspecified)
Resp: FALSE

Req: Dear all, I need the recorded test outcome for `CN(C)CCc1c[nH]c2ccc(C[C@H]3COC(=O)N3)cc12` , thank you.
Resp: FALSE

Req: Could you please tell me the result logged for CCC(C)(C)c1ccc(CC(C)CN2C[C@@H](C)O[C@@H](C)C2)cc1 (stereo partly specified) in this assay?
Resp: FALSE

---

# Tgt: Thyrotropin-releasing hormone receptor (Homo sapiens) (UniProt P34981)
# Sequence (P34981 whole entry, looked up): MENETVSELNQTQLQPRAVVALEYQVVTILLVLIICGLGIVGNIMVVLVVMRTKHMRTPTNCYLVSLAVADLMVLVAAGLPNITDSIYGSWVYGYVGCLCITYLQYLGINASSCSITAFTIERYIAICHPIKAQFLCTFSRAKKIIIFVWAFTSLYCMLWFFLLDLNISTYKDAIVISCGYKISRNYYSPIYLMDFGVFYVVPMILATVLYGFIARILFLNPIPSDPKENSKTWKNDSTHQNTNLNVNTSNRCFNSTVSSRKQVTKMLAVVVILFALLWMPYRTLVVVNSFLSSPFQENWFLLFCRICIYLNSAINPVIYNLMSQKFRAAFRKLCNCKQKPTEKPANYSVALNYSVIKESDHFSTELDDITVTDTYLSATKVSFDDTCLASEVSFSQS
# Assay Comment: qHTS for Small Molecule Agonists and Allosteric Enhancers of Human TRH Receptor: Validation Screen for Agonists (AID 493127);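 note: intracellular calcium rise by fluo-8 fluorescence before TRH EC20 addition; 0% is about no effect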
# Details: TRH receptor agonist cell assay; at 2 µM; stronger effect = higher value
Property: activation (%)
API: value field is a number in %; no unit string.

See these solved cases before continuing.
| Molecule | activation (%) |
| --- | --- |
| Nc1nc(N)c2nc(CNc3ccc(C(=O)NC(CCC(=O)O)C(=O)O)cc3)cnc2n1 (configuration not stated) | 1 |
| CCN1CCCC1CNC(=O)c1cc(S(N)(=O)=O)ccc1OC (configuration not stated) | 0.25 |
| OCc1ccc(-c2nn(Cc3ccccc3)c3ccccc23)o1 | 0.188 |
| Cc1ccc(S(=O)(=O)N[C@@H](Cc2ccccc2)C(=O)CCl)cc1 | 2.5 |
| NC(=O)c1cccc(N)c1 | 1.12 |

Req: Name the reported activation value associated with the molecule CC(C)NCC(O)c1ccc(NS(C)(=O)=O)cc1 (configuration not stated)
Resp: 0.875

Req: Bench note: what activation did `CC(C)(C)NC(=O)[C@H]1CC[C@H]2[C@@H]3CC[C@H]4NC(=O)C=C[C@]4(C)[C@H]3CC[C@]12C` show?
Resp: 0.688

---

# Tgt: Protein phosphatase 1D (Homo sapiens) (UniProt O15297)
# Sequence (O15297 whole entry, looked up): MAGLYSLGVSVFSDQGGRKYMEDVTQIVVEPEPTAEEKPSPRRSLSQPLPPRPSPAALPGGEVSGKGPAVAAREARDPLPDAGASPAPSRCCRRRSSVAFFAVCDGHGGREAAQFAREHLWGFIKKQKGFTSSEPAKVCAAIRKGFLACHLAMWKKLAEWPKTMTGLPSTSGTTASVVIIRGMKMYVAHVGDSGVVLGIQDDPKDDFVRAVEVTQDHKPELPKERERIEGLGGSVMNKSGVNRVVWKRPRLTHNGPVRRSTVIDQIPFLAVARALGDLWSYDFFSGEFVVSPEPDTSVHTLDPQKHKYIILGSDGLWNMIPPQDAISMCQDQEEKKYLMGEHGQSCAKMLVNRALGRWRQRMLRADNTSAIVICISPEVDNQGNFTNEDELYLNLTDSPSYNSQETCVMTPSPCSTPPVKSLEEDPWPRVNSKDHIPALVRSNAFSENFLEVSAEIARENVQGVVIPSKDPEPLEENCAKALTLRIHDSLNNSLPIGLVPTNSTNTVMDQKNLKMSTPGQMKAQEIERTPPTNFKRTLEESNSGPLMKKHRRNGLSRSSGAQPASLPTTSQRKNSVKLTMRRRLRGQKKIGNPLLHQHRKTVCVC
# Assay Comment: RapidFire Mass Spectrometry qHTS Assay for Modulators of WT P53-Induced Phosphatase 1 (WIP1) (AID 1347424);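 note: amount of dephosphorylated VEPPL-S-QETFS peptide product formed by WIP1; plate controls were DMSO wells for no effect and GSK830371 inhibitor control at 10 µM for full effect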
# Details: WIP1 dephosphorylation of phosphopeptide, RapidFire MS; series mostly up to 63 µM
Records with an inconclusive call do not appear. Calls of active or inactive are those of the source. Calls follow the shape of the dose curve; as a rule, active = well fitted inhibition curve with a large enough effect; inconclusive = small, poorly fitted or top-dose-only effect; inactive = no such curve, though single readings can be large or run the other way.
Property: outcome

| Molecule | outcome |
| --- | --- |
| Cc1noc(NS(=O)(=O)c2ccc(N)cc2)c1C | inactive |
| CC[C@H](C)C(=O)O[C@H]1C[C@@H](C)C=C2C=C[C@H](C)[C@H](CC[C@@H]3C[C@@H](O)CC(=O)O3)[C@H]21 | inactive |
| CCc1cc(C(N)=S)ccn1 | inactive |
| CCCc1nc(C)c2c(=O)[nH]c(-c3cc(S(=O)(=O)N4CCN(CC)CC4)ccc3OCC)nn12 | inactive |

Req: For `CCCCc1oc2ccc(NS(C)(=O)=O)cc2c1C(=O)c1ccc(OCCCN(CCCC)CCCC)cc1` , what is its reported outcome?
Resp: inactive

---

# Assay Comment: Quantitative High-Throughput drug screen in 47 multiple myeloma cell lines against the NCATS MIPE library collection: NCIH929_DSMZ cell viability assay (AID 1918978); note: nearly all actives have a fitted effect of over 35% in size
# Details: NCI-H929 myeloma viability, CellTiter-Glo ATP, 48 h; series mostly up to 45.8 µM
Inconclusive results are not listed. Activity calls are given as the source filed them. The call rests on the fitted dose curve; in most records, active means well fitted cell-killing curve with a large enough effect; inconclusive means small, poorly fitted or top-dose-only effect; inactive means no such curve, though single readings can be large or run the other way.
Answer with one of the outcomes active, inactive

// known answers, use as guide
| Molecule | Discrete Label |
| --- | --- |
| CC1CC2C3CCC4=CC(=O)C=C[C@]4(C)[C@@]3(F)[C@@H](O)C[C@]2(C)[C@@]1(O)C(=O)CO (stereo not given in full) | active |
| NC(=O)c1cccc(N)c1 | active |
| COc1cccc(N(C)C(=S)Oc2ccc3c(c2)CCCC3)n1 | inactive |

Req: Kindly provide the recorded test outcome for the following molecule: `COc1cc([C@@H]2c3cc4c(cc3[C@H](O)[C@H]3COC(=O)[C@H]23)OCO4)cc(OC)c1OC`
Resp: inactive

Req: Assay outcome for `Nc1nc(F)nc2c1ncn2[C@@H]1O[C@H](CO)[C@@H](O)[C@@H]1O` : what was it?
Resp: active

Req: // return assay outcome for `CC(C)OC(=O)C(C(=O)OC(C)C)=C1SC=CS1`
Resp: inactive

Req: Could you kindly confirm the outcome this assay logged for `O=C(O)c1cccnc1` ?
Resp: inactive

Req: How was `CN(Cc1cc(Br)cc(Br)c1N)C1CCCCC1` classified in this test?
Resp: inactive

Req: For CCOCC(O)COc1ccc(NC(=O)CC[S+](C)C)cc1 (stereo not given) , which call appears in the assay record?
Resp: inactive

Req: Hello, I am checking results. What call was entered for `CCN(CC)CCn1c(=O)c(Cc2ccc(OC)cc2)nc2ccccc21` ?
Resp: inactive

Req: For this molecule, state the assay outcome: `COc1ccc(C(=O)CC(=O)c2ccc(C(C)(C)C)cc2)cc1`
Resp: active

Req: Hi, sorry to bother you, what did the test record for CC(C(=O)O)c1ccc2c(c1)CC(=O)c1ccccc1S2 (stereo not given) ?
Resp: inactive

Req: Outcome? `COc1ccc2c(c1)c(CC(=O)OCC(=O)O)c(C)n2C(=O)c1ccc(Cl)cc1`
Resp: inactive

Req: Entry `Nc1nc(=S)c2[nH]cnc2[nH]1` : call = ?
Resp: active

Req: For `Nc1[nH]c(=O)ncc1F` , which call appears in the assay record?
Resp: inactive

Req: Name the outcome recorded for `C[C@@H](NCCCc1cccc(C(F)(F)F)c1)c1cccc2ccccc12` in the assay.
Resp: inactive

Req: Which result was noted for this molecule in the test: `COc1ncnc(NS(=O)(=O)c2ccc(N)cc2)c1OC`
Resp: inactive

Req: How was `Oc1c(Cl)cc(Cl)c2cccnc12` classified in this test?
Resp: active

Req: Per the records of this test, what outcome belongs to `O=S(=O)(O)CCS` ?
Resp: inactive

Req: GET /call?item= `Cc1noc(NS(=O)(=O)c2ccc(N)cc2)c1C` returns the recorded outcome of this test.
Resp: inactive

Req: Status in this test for `CC1=CC(=O)c2ccccc2C1=O` ?
Resp: active

The reported measurements were obtained from PubChem BioAssay (NCATS).
